Quick reference: bovine α1A % E of the listed items.
# STUDY SYSTEM: bovine α-1A adrenergic receptor (Bos taurus)
# Sequence (P18130 whole entry): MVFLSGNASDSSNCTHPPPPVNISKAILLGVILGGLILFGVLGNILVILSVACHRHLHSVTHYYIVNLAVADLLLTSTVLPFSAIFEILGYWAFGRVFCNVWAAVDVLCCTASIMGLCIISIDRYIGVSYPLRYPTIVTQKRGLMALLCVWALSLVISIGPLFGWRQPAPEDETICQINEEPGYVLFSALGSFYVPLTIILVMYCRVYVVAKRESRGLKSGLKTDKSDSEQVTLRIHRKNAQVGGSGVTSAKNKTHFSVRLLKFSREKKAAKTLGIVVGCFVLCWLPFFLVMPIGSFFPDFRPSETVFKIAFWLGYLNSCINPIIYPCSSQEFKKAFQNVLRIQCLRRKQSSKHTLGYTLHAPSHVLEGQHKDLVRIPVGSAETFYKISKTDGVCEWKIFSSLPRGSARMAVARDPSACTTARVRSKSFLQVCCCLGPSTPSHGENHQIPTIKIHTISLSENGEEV
# METHOD SUMMARY: Intracellular Ca+2 response in HEK293 cells expressing bovine α-1A receptor
# Assay type: cell-based
# EXPERIMENTAL SETUP: percent efficacy relative to phenylephrine
PARAMETER: bovine α1A % E (%)

1) Clc1cccc(Cl)c1N=C1NCCN1: 62
2) Clc1ccc2nsnc2c1NC1=NCCN1: 63
3) Brc1c(NC2=NCCN2)ccc2nccnc12: 15
4) Cc1cccc([C@H](C)c2cnc[nH]2)c1C: 59
5) CNC[C@H](O)c1cccc(O)c1: 110

====

# STUDY SYSTEM: UniProt P18130
# METHOD SUMMARY: Intracellular Ca+2 response in HEK293 cells expressing bovine α-1A receptor
# Type: cell-based
# EXPERIMENTAL SETUP: result in words
PARAMETER: agonist activity at the α-1A receptor

1) Clc1ccc2nsnc2c1NC1=NCCN1 [Tizanidine]: partial agonists
2) Cc1cccc([C@H](C)c2cnc[nH]2)c1C [Dexmedetomidine]: partial agonists
3) Clc1cccc(Cl)c1N=C1NCCN1 [Clonidine]: partial agonists

====

Overview of recorded human α2C % E for various compounds
# STUDY SYSTEM: human α-2C receptor (Homo sapiens, UniProt P18825)
# Construct: expressed in transfected cells; host or cells: PC12 cells (retroviral vector pCL BABE Puro)
# Sequence (P18825 whole entry): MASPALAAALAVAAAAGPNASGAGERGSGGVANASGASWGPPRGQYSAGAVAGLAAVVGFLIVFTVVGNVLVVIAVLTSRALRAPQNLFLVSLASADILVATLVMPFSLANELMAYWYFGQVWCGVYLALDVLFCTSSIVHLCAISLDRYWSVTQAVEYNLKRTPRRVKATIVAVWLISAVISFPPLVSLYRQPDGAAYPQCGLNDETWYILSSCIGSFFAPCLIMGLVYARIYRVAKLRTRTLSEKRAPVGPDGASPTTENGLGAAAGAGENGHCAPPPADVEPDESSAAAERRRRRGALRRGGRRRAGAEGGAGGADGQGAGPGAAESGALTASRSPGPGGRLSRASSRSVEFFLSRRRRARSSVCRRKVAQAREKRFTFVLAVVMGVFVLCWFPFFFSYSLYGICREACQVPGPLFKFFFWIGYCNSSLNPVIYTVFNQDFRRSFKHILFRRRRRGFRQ
# METHOD SUMMARY: Inhibition of forskolin-induced cAMP accumulation in PC12 cells expressing human α-2C receptor
# Type: cell-based
# EXPERIMENTAL SETUP: percent efficacy relative to brimonidine
PARAMETER: human α2C % E (%)

1. Cc1cccc([C@H](C)c2cnc[nH]2)c1C [Dexmedetomidine]: 90
2. Brc1c(NC2=NCCN2)ccc2nccnc12 [Brimonidine]: 93
3. Clc1cccc(Cl)c1N=C1NCCN1 [Clonidine]: 84
4. Clc1ccc2nsnc2c1NC1=NCCN1 [Tizanidine]: 85
5. CNC[C@H](O)c1cccc(O)c1 [Phenylephrine]: 87

====

# STUDY SYSTEM: hamster α-1B adrenergic receptor (Mesocricetus auratus, UniProt P18841)
# Sequence (P18841 whole entry): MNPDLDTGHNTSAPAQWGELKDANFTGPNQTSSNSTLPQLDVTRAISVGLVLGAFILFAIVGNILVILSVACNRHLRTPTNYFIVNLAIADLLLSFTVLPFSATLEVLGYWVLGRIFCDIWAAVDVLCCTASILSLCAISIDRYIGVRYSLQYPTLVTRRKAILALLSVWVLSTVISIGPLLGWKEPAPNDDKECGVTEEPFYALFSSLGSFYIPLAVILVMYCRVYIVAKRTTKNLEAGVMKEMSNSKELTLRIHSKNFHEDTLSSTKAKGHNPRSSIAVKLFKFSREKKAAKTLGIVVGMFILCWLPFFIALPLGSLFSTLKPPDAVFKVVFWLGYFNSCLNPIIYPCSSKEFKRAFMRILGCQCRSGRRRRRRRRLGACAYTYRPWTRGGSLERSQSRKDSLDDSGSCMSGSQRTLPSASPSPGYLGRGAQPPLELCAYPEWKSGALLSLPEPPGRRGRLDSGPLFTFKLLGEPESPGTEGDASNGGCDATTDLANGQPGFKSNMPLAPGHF
# Assay type: cell-based
# EXPERIMENTAL SETUP: percent efficacy relative to phenylephrine
Everything with hamster α1B % E lower than 60% is n; everything else, including exactly 60%, is y.

1. CNC[C@H](O)c1cccc(O)c1 [Phenylephrine]: y
2. Clc1cccc(Cl)c1N=C1NCCN1 [Clonidine]: y
3. Brc1c(NC2=NCCN2)ccc2nccnc12 [Brimonidine]: n
4. Cc1cccc([C@H](C)c2cnc[nH]2)c1C [Dexmedetomidine]: y
